experiment: PK after single intravenous injection of Peptide 1 in male rats; design: species or system male Wistar (CRL: WI(Han)) rats; conditions: rat, in vivo, iv, single IV, terminal elimination phase, range over 0.1-10 mg/kg, read-out: half-life
Ends that are not written are not given here.
measure: half-life

[in] Would you mind telling me what half-life value was observed for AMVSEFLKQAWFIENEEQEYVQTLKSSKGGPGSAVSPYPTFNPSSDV-NH2 [Peptide 1] ?
[out] 10 to 19 min

----------
test: Clinical test in humans, three 30-min i.v. infusions 8 hours apart, plasma PK; type: in vivo; settings: human, in vivo, iv, 140 ug/kg, three 30-min i.v. infusions 8 h apart, 140 μg/kg each, mean, read-out: AUC0-tau1
Ends that are not written are not given here.
measure: AUC

[in] Value lookup for AUC; key = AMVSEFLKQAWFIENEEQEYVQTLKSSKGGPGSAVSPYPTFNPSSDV-NH2 [Peptide 1]
[out] 1760 ng·h/mL

----------
experiment: 14-day repeat IV dose toxicity study with toxicokinetic evaluation on Day 1 and 14 in dogs; format: in vivo, beagle dogs; settings: dog, in vivo, iv, 10 mg/kg/day, IV 10 mg/kg/day, female, Day 14, read-out: T1/2
Ends that are not written are not given here.
measure: half-life (min)
Provide only the numeric value, understood in min.

[in] # get_value(readout='half-life', item= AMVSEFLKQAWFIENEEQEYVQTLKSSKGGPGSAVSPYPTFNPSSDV-NH2 [Peptide 1] )
[out] 5.9

----------
Assay: Clinical test in humans, single 30-min i.v. infusion, plasma PK
Type: in vivo
Conditions: human, in vivo, iv, single 30-min i.v. infusion 200 μg/kg, mean, read-out: t1/2 (converted)
Procedure: A total of 8 healthy subjects were included in each group. […] In these groups, 6 subjects received the active treatment (i.e. a single Peptide 1 30-min intravenous (i.v.) infusion corresponding to the above doses) and 2 received the placebo. In order to prevent any anticipated unblinding, the subjects under active treatment were recorded by the bioanalytical laboratory. […]
Ends that are not written are not given here.
measure: half-life (h)
Give just the numeric value; h need not be written.

[in] GET /values?readout=half-life&item= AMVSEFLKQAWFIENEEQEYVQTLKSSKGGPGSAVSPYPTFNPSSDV-NH2 [Peptide 1]
[out] 1.45

----------
assay: 14-day repeat dose IV toxicity study with toxicokinetic evaluation on Day 1 and Day 14 in rats; type: in vivo, Wistar rats; settings: rat, in vivo, iv, 10 mg/kg/day, IV 10 mg/kg/day, female, Day 14
Ends that are not written are not given here.
measure: C0 (µg/mL)
Write the value in µg/mL as a bare number.

[in] Which measured C0 value corresponds to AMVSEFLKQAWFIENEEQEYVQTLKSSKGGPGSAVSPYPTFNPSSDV-NH2 [Peptide 1] ?
[out] 138

----------
test: Clinical test in humans, three 30-min i.v. infusions 8 hours apart, plasma PK; format: in vivo; conditions: human, in vivo, iv, 140 ug/kg, three 30-min i.v. infusions 8 h apart, 140 μg/kg each, mean, read-out: Global Cmax
Ends that are not written are not given here.
measure: Cmax (ng/mL)
Please state the figure in ng/mL; there is no need to write the unit.

[in] Could you tell me which Cmax is on file for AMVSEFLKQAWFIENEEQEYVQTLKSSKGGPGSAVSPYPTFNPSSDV-NH2 [Peptide 1] ?
[out] 1430
